B1: tRNA (parent)
chain: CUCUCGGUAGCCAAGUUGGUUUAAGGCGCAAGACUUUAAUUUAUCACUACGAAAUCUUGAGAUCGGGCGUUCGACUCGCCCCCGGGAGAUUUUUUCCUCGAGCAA

variants of: B1; experiment: nonsense suppression (GFP-seq) (ratio to wild type); higher = more function; SUP4oc tRNA, yeast GFP reporter sort-seq
Variants at the floor of the assay were thinned out.
Form field: nonsense suppression (one value per entry).

Completed entries (count: 5):
CUCUCGGUAGCCAAGUUGGUUUGAGGCGCAAGACUUUAAUUUAUCACUACGAAAUAUUGAGAGCGGGCGUUCGACUCGCCCCCGGGAGAUUUUUUCCUCGAGCAA [A23G C56A U63G] ... ≤ 0.026
CUCUCGGUAGCCAAGUUGGAUUAAGGCGCAAGACUUUAAUUUAUCACUACGAAAUCUUGAGAUCGGGCGUUCGAGUCGCCCCCGGGAGAUUUUUUCCUCGAGCAA [U20A C75G] ... 0.473
CUCUCGGUAGCCAUGCUGGUUUAAGGCGCAAGACUUUAAUUUAUCACUACGAAAUCUAGAUAUCGGGCGUUUGACUCGCCCCCGGGAGAUUUUUUCCUCGAGCAA [A14U U16C U58A G61U C72U] ... ≤ 0.026
CUCUCGGUAGCCAAGUUGGUUUAAGGCGCAAGACUUUAAUUUAUCACUACGAAAUCUUGAAAUCGGGCGUUCGACUCGGCCCCGGGAGAUUUUUUCCUCGAGCAA [G61A C79G] ... ≤ 0.026
CUCUCGGUAGCCUAGUUGGUUUAAGGCGCAAGGCUUUAAUUUAUCACUACGAAAUCUUGAGAUCGGGCGUUCGACUCGCCCCCGGGAGAUUUUUUCCUCGAGCAA [A13U A33G] ... 0.194

Query block: Bench note: what nonsense suppression did CUCUCGGUAGCCAAGUUGGUUUAAGGCGCAAGACUUUAAUUUAUCACUACGAAAUCUUGAGACCGGGCGUUCGACUCGCCCCCGGGAGAUUUUUUCCUCGAGCAA [U63C] show?
Result block: 1.05

Query block: Query CUCUCGGUAGCCAAGUUGGUUUAAGGCGCAAGACUUUAAUUUAUCACUACGAAAUCUUGAGGUCGGGCGUUCGAGUCGCCCCCGGGAGAUUUUUUCCUCGAGCAA [A62G C75G] next
Result block: 0.205

Query block: Query CUCUCGGUAGCCAAGUUGGUUUAAGGCGCAUGACUUUAAUUUAUCACUACGAAAUCUUGAGAACGGGCGUUCGACUCGCCCCCGGGAGAUUUUUUCCUCGAGCAA [A31U U63A] next
Result block: 0.0391
